- methodNotes: AUC(ng h/mL)values after oral administration of 10 mg/kg in guinea pig.
- Type: ADME, organism-based, Cavia porcellus
- Design: dose 10 mg/kg, route oral
- condition: plasma
measurementKind: AUC (ng·h/mL)

>  <molecule>
CCOC(=O)CC1CCc2cc(NC(=O)c3ccc(C(=N)N)cc3)ccc2C1=O (centres undefined)

>  <AUC, ng·h/mL>
3990

$$$$

A. CCOC(=O)CC1CCc2cc(NC(=O)c3ccc(C(=N)N)cc3)ccc2C1 (centres undefined)
B. N=C(N)c1ccc(C(=O)Nc2ccc3c(c2)CCC(CC(=O)O)C3)cc1 (centres undefined)
C. N=C(N)c1ccc(C(=O)Nc2ccc3c(c2)CCN(CC(=O)O)C3=O)cc1
Task: Task field, ranking: reported AUC, descending order. Return the labels ranked in the requested order, please.
Output: A, B, C
